// fold change lookup, one value per entry
- assay.info: esBAF inhibition via Bmi1 de-repression, confirmation, cell-based, RT-qPCR, mouse ESC, single point, cherry-pick (AID 743180);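 note: higher fold means more Bmi1 de-repression and stronger esBAF inhibition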
- assay.context: mouse ESC E14, Bmi1 mRNA qPCR fold; Bmi1 de-repression; at 7 µM; stronger effect = higher value
This is one part of the list.
measured.quantity: fold change

{"columns": ["chem.smiles", "result"],
 "data": [
  ["COC(=O)/C(=C1\\Oc2ccc(C(C)(C)C)cc2S1)C(F)(F)F", 1.51],
  ["COc1ccc(C(=O)CCc2ccccc2O)c(OC)c1", 1.55],
  ["O=C(c1noc2c1CCCC2)N1CCc2ccccc2C1", 1.08],
  ["COc1ccc(-c2csc(Nc3cccc(C)n3)n2)cc1OC", 1.47],
  ["Clc1cccc(Cl)c1Cn1nnc(-c2cccs2)n1", 1.24],
  ["COc1cc2ccccc2cc1C(=O)Nc1ccncc1", 1.73],
  ["COc1cc2ccccc2cc1C(=O)Nc1ccccc1C", 1.37],
  ["O=C(c1ccc(Cl)cc1)c1cnc(Nc2ccccc2)s1", 1.41],
  ["CC(C)(C)NC(=O)Cn1nnc(-c2ccccc2Cl)n1", 1.16],
  ["COc1ccc(CNC(=O)COc2ccccc2C(=O)c2cnn(-c3ccccc3)c2)cc1OC", 1.36],
  ["Cc1nc(-c2ccccc2)sc1-c1nnc(C2CC2)o1", 1.21],
  ["C/C(=C\\C(=O)c1cccnc1)Nc1ccc(C)c(C)c1", 1.46]
]}

----------
- assay.info: anti-His antibody binders, primary screen, artefact control for SMM control protein annotation, biochemical, small-molecule microarray, 635 nm fluorescence (AID 1128);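 note: score merges feature fluorescence with signal-to-noise for each printed compound spot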
- assay.context: anti-His Alexa647 antibody binding, higher = more signal
Collected composite z-score values appear next to each entry.
measured.quantity: composite z-score

{"columns": ["compound", "measured.number"],
 "data": [
  ["Cc1ccc(N2C(=O)c3ccccc3[C@](C)(C(=O)NCC(F)(F)F)[C@@H]2c2ccc(CO)cc2)nc1", -1.32],
  ["C=C(C1=CCN(S(=O)(=O)c2ccc(C)cc2)C1)[C@@H](OC(C)=O)[C@@H]1CCCN1S(=O)(=O)c1ccccc1[N+](=O)[O-]", 0.0491],
  ["CC(C)C[C@@H]1NC(=O)[C@@]23C(=O)N[C@@H](Cc4ccccc4)C2[C@H](C)[C@@]2(C)O[C@H]2C3/C=C/C/C=C\\CNC(=O)[C@H](Cc2ccccc2)NC1=O (stereo partly drawn)", 2.15]
]}

----------
- assay.info: cytotoxicity in IOSE-T80 ovarian epithelial cells, dose response, selectivity assay for PAX8 inhibitor project, cell-based, cherry-pick (AID 687032);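 note: cells exposed to compound for 96 h before reading; 0% = neutral control wells and -100% = 2 µM mitoxantrone kill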
- assay.context: CellTiterGlo ATP luminescence, 96 h; series mostly up to 35 µM
Entries with a potency or affinity are not part of this list. Inconclusive results are not listed. The source made the active and inactive calls.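 Rule for the calls: active = fitted half-maximal concentration for viability loss no higher than twice the top valid dose, in every repeat run; inconclusive = repeat runs disagree, flat partial loss, or poor curve fit; inactive = the rest.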

{"columns": ["chem.smiles", "outcome"],
 "data": [
  ["C[C@H]1CCCCO[C@@H](CN(C)C(=O)NC2CCCCC2)[C@@H](C)CN([C@@H](C)CO)C(=O)c2cc(NC(=O)Nc3ccc(C(F)(F)F)cc3)ccc2O1", "inactive"],
  ["C[C@@H]1CN([C@H](C)CO)C(=O)c2cc(NC(=O)Nc3ccc(C(F)(F)F)cc3)ccc2O[C@@H](C)CCCCO[C@@H]1CN(C)C(=O)NC1CCCCC1", "inactive"],
  ["O=C(Cc1ccccn1)NCC[C@@H]1CC[C@H](NC(=O)Nc2ccc(C(F)(F)F)cc2)[C@@H](CO)O1", "inactive"]
]}
